Measured IC50 (human C5a receptor (C5aR) (Homo sapiens (Human), UniProt P21730))

Recorded IC50, per entry:
# Molecule, IC50
data = [
    ("Cc1ccc(NC(=O)[C@H]2C[C@H]3CCC[C@H]3N(C(=O)c3c(C)cccc3F)[C@H]2c2ccc(NC3CCCC3)cc2)cc1C(F)(F)F", "50 to 500 nM"),
    ("Cc1cccc(F)c1C(=O)N1C(c2ccc(NC3CCCC3)cc2)C(C(=O)Nc2cnc3cnn(C)c3c2)C[C@@H]2CCC[C@@H]21 (relative stereo)", "50 to 500 nM"),
    ("Cc1ccc(NC(=O)[C@H]2CCCN(S(=O)(=O)c3cccnc3Cl)[C@H]2c2ccc(NC3CCCC3)cc2)cc1C(F)(F)F", "500 to 2000 nM"),
]

Input: Dear colleague, I am looking for the recorded IC50 of the following molecule: Cc1ccc(NC(=O)C2C[C@@H]3CCC[C@@H]3N(C(=O)c3cocn3)C2c2ccc(NC3CCCC3)cc2)cc1C(F)(F)F (relative stereo)
Output: 50 to 500 nM

Input: Try this molecule next: `Cc1cccc(F)c1C(=O)N1[C@@H]2CCC[C@@H]2C[C@H](C(=O)Nc2ccc3c(cnn3Cc3cccnc3)c2)[C@@H]1c1ccc(NC2CCOCC2)cc1`
Output: 2000 to 5000 nM

---

Entries and their IC50
- Tested system: C5aR (Homo sapiens (Human), UniProt P21730)
- Sequence (P21730 whole entry): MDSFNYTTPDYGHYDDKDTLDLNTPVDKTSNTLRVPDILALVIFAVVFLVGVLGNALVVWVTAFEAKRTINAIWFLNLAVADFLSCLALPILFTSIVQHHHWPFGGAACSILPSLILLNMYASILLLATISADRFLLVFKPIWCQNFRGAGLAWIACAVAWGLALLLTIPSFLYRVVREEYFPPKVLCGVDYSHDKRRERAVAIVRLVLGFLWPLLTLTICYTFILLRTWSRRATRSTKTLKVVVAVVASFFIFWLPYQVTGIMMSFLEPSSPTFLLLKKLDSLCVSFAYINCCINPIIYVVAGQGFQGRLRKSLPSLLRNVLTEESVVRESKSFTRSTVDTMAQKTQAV
- Assay text: Calcium mobilization (U937/C5aR or HEK293/C5aR cells, FLIPR)
- Type: cell-based
- Measurement context: agonist human C5a at EC80, FLIPR

Recorded IC50, per entry:
# Molecule, IC50
records = [
    ("Cc1ccc(NC(=O)[C@H]2CCCN[C@H]2c2ccc(N(c3nncc4ccccc34)C3CCCC3)cc2)cc1C(F)(F)F [Compound 179]", "2000 to 10000 nM"),
    ("Cc1cccc(F)c1C(=O)N1C(c2ccc(NC3CCCC3)cc2)C(C(=O)Nc2ccc3c(c2)CCN(C)C3)C[C@@H]2CCC[C@@H]21 (relative stereo) [Compound 77]", "2000 to 10000 nM"),
    ("Cc1ccc(NC(=O)[C@@H]2CCCN[C@H]2c2ccc(N(c3ncnc4cccnc34)C3CCCC3)cc2)cc1C(F)(F)F [Compound 174]", "2000 to 10000 nM"),
]

Input: Dear colleague, I am looking for the recorded IC50 of the following molecule: Cc1ccc(NC(=O)[C@H]2CC[C@@H]3CCc4cccc(F)c4C(=O)N3C2c2ccc(NC3CCCC3)cc2)cc1C(F)(F)F (relative stereo) [Compound 41]
Output: 2000 to 10000 nM

---

- Tested system: human C5a receptor (C5aR) (Homo sapiens (Human), UniProt P21730)
pIC50: −log10 of the molar value.
Readout label: pIC50

Recorded pIC50, per entry:
# Compound, pIC50
rows = [
    ("Cc1cccc(F)c1C(=O)N1[C@@H]2CCC[C@@H]2C[C@H](C(=O)Nc2ccc3nn(C)cc3c2)[C@@H]1c1ccc(NC2CCOCC2)cc1", "5.70 to 6.30"),
    ("Cc1cccc(F)c1C(=O)N1[C@@H]2CCC[C@@H]2C[C@H](C(=O)Nc2ccc3c(c2)OCCO3)[C@@H]1c1ccc(NC2CCCC2)cc1 (racemic)", "> 7.30"),
    ("Cc1cccc(F)c1C(=O)N1C(c2ccc(NC3CCCC3)cc2)C(C(=O)Nc2ccc3c(cnn3C)c2)C[C@@H]2CCC[C@@H]21 (relative stereo)", "> 7.30"),
    ("Cc1ccc(NC(=O)[C@H]2CCCN(C(=O)c3c(C)cccc3F)[C@H]2C2CCC3(CCOC3)CC2)cc1C(F)(F)F (stereo partly drawn)", "5.70 to 6.30"),
    ("Cc1ccc(NC(=O)[C@H]2CCCN(S(=O)(=O)c3cccc(Cl)c3C)[C@H]2c2ccc(NC3CCCC3)cc2)cc1C(F)(F)F", "5.30 to 5.70"),
]

Input: Dear colleague, I am looking for the recorded pIC50 of the following compound: Cc1ccc(NC(=O)C2C[C@@H]3COC[C@@H]3N(C(=O)c3c(C)cccc3F)C2c2ccc(NC3CCCC3)cc2)cc1C(F)(F)F (relative stereo)
Output: > 7.30

Input: Try this compound next: `Cc1ccc(NC(=O)[C@H]2CCCN(S(=O)(=O)c3c(C)cccc3C)[C@H]2c2ccc(NC3CCCC3)cc2)cc1C(F)(F)F`
Output: 5.70 to 6.30

Input: Try this compound next: `Cc1ccc(NC(=O)[C@H]2CCCN(c3nccc4cccnc34)[C@H]2c2ccc(NC3CCCC3)cc2)cc1C(F)(F)F`
Output: 5.70 to 6.30

Input: Try this compound next: `Cc1cccc(F)c1C(=O)N1[C@@H]2CCC[C@@H]2C[C@H](C(=O)Nc2ccc3nn(CCO)cc3c2)[C@@H]1c1ccc(NC2CCOCC2)cc1`
Output: 5.30 to 5.70

Input: Try this compound next: `Cc1cccc(F)c1C(=O)N1[C@@H]2COC[C@@H]2C[C@H](C(=O)Nc2ccc3cnn(C)c3c2)[C@@H]1c1ccc(NC2CCCC2)cc1`
Output: 5.30 to 5.70

Input: Try this compound next: `Cc1ccc(NC(=O)[C@H]2CCCN(S(=O)(=O)c3cc(F)ccc3C)[C@H]2c2ccc(NC3CCCC3)cc2)cc1C(F)(F)F`
Output: 5.70 to 6.30

Input: Try this compound next: Cc1ccc(NC(=O)C2C[C@H]3CCC[C@H]3N(C(=O)c3cscn3)C2c2ccc(NC3CCCC3)cc2)cc1C(F)(F)F (relative stereo)
Output: > 7.30
